Biological target: IGF1R (human)
Experiment: radiometric filter-binding kinase assay, Kinase HotSpot
Details: compound 0.5 µM; ATP 10 µM
Please respond with reported residual activity for every item in the list.
Answers are plain numbers, in %.

Quick batch: residual activity for everything below.
1. C#Cc1cccc(Nc2ncnc3cc(OCCOC)c(OCCOC)cc23)c1
2. Nc1nc(Nc2ccc(S(N)(=O)=O)cc2)nn1C(=S)Nc1c(F)cccc1F
3. CS(=O)c1ccc(-c2nc(-c3ccc(F)cc3)c(-c3ccncc3)[nH]2)cc1 (centres undefined)

**A:**
91.6
0.625
94.3

**Q:** Give recorded residual activity. Clc1ccc(Nc2nnc(Cc3ccncc3)c3ccccc23)cc1
**A:** 108
